# target-desc: Hydroxycarboxylic acid receptor 2 (Homo sapiens)
# assay-comment: Activity at GPR109a assessed as inhibition of forskolin-stimulated cAMP production

{"compound": "CC1(c2ccccc2)OC(C(=O)O)=CC1=O (stereo unspecified)", "target-desc": "Hydroxycarboxylic acid receptor 2 (Homo sapiens)", "IC50, nM": 500}

====

# target-desc: Hydroxycarboxylic acid receptor 2 (Homo sapiens, UniProt Q8TDS4)
# Sequence (Q8TDS4 whole entry): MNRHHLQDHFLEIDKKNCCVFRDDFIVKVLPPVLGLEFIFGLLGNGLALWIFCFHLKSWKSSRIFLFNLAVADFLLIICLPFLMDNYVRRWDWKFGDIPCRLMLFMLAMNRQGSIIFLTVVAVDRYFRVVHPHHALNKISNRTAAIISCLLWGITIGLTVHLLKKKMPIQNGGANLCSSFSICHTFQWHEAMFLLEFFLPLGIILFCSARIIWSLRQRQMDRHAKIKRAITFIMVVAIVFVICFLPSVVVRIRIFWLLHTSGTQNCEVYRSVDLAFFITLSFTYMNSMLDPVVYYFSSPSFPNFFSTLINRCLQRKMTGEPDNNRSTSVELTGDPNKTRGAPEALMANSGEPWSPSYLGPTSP
# assay-comment: Activity at GPR109a assessed as inhibition of forskolin-stimulated cAMP production
pEC50: −log10 of the molar value.

{"chemical-string": "CC(C)n1nnc2cc(C(=O)O)ccc21", "target-desc": "Hydroxycarboxylic acid receptor 2 (Homo sapiens, UniProt Q8TDS4)", "pEC50": 6.40}

====

# target-desc: Hydroxycarboxylic acid receptor 3 (Homo sapiens)
# Sequence (P49019 whole entry): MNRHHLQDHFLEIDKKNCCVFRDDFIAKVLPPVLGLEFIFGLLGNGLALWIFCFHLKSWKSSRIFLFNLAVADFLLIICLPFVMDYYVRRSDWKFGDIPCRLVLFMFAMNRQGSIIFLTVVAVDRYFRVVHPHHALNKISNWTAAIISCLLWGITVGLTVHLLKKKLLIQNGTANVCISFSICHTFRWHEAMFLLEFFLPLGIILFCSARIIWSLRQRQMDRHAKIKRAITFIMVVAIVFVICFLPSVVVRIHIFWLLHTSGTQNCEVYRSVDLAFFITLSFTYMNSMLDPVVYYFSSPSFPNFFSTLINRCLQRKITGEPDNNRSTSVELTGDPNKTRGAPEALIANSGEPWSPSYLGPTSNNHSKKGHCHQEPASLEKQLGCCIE
# assay-comment: Activity at GPR109b assessed as inhibition of forskolin-stimulated cAMP production
# Format: functional
assay-endpoint: IC50 (µM)

{"compound": "CC1(c2ccccc2)OC(C(=O)O)=CC1=O (stereo unspecified)", "unit-abbreviation": "µM", "result-value": 3}
